Molecular target: T1, human IL-2Rα subunit (human, UniProt P01589 22-213, limits assumed)
T1 construct: also called CD25
T1 sequence (looked up): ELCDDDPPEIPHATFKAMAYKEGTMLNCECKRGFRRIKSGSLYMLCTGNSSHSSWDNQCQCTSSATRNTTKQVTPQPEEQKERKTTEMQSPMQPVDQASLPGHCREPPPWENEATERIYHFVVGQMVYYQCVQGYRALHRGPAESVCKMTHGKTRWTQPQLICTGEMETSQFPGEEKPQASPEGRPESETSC
Each item that follows carries a reported IC50.

Reference set, count: 2
INSERT INTO assay_data (binder, measured) VALUES
  ('CVACSSDGCSPIIC [SEQ ID NO 292]', '< 100 µM'),
  ('RLFCLMNPGPPDCWIY [SEQ ID NO 134]', '< 100 µM');

**Query** IC50 lookup needed for MRFCLRSEPTACWTV [SEQ ID NO 61] , thanks.
**Result** < 100 µM

**Query** IC50 lookup needed for SHGVCCTQSSCRSCR [SEQ ID NO 280] , thanks.
**Result** < 100 µM

**Query** IC50 lookup needed for CILNDTIQGWVCIY [SEQ ID NO 259] , thanks.
**Result** < 100 µM

src = patent US20200399314A1
